Provenance of the data: ChEMBL document CHEMBL4321829

protocol.details: Selectivity index, ratio of IC50 for rat H9c2 cells to IC50 for antitrypanosomal activity against Trypanosoma cruzi Tulahuen trypomastigotes beta-galactosidase infected in rat H9c2 cells
Format: toxicity, cell-based
conditions: read-out: Ratio IC50
measured.metric: selectivity ratio

Here's what some known entries look like.
compound | selectivity ratio
CC(C)C(=O)Nc1nc2ccc(Cl)cc2s1 | > 123
CC(C)(F)C(=O)Nc1nc2ccc(C(F)(F)F)cc2s1 | > 384
O=C(Nc1nc2cc(F)c(C(F)(F)F)cc2s1)C1CC1 | > 630
O=C(Nc1nc2ccc(Cl)cc2s1)C1CCOC1 (stereo not drawn) | > 11
O=C(CC1CC1)Nc1nc2ccc(Cl)cc2s1 | > 9

[Q] What value of selectivity ratio has been recorded for this entry: "CC(C)C(=O)Nc1nc2cc(F)c(C(F)(F)F)cc2s1"
[A] > 200

[Q] Request: "O=C(Nc1nc2ccc(Cl)cc2s1)C1CCC1"
[A] > 38

[Q] // repeat for "O=C(Nc1nc2ccc(F)cc2s1)C1CC1" and report
[A] > 12

[Q] Then what about the compound "O=C(Nc1nc2ccc(OC(F)(F)F)cc2s1)C1CC1" ?
[A] 28

[Q] Same thing, different compound: "CN(C(=O)C1CC1)c1nc2ccc(Cl)cc2s1"
[A] > 2

[Q] Thanks! And "N#Cc1cc2sc(NC(=O)C3CC3)nc2cc1F" ?
[A] > 22

[Q] Please answer likewise for "O=C(Nc1nc2cccc(Cl)c2s1)C1CC1"
[A] > 2

[Q] Record: "CCN(C(=O)C1CC1)c1nc2ccc(Cl)cc2s1"
[A] 1
